tested on: Yap1 mRNA; test: Dose-dependent inhibition of human Yap1 in A-431 cells (Example 8, 10,000 cells per well, RTS4814); assay type: cell-based; details: 2000.00 nM; A-431 cells, 10,000 cells per well, free uptake, approximately 48 hours, RTS4814
Strand notation (5' to 3'): a small letter for the sugar, then the base; units joined by * are phosphorothioate-linked, units joined directly phosphodiester-linked; [ ] holds rarer units or linkages, { } end groups; capitals alone tell only the bases. k = constrained ethyl (cEt); [5mC] = 5-methylcytosine; d = 2'-deoxy (DNA)
Collected Yap1 mRNA, % UTC values appear next to each entry.
Quick reminder: number only, in % UTC, skip the unit.

1076460 (kT*kA*kA*dT*dA*dT*dA*dG*d[5mC]*d[5mC]*d[5mC]*d[5mC]*dT*kT*k[5mC]*kA; antisense) [compound 1076460]; 12
1076466 (kA*kT*kT*dT*dA*dG*dA*dG*d[5mC]*dT*dT*dA*dA*kG*kG*kA; antisense) [compound 1076466]; 6
1074419 (kA*kT*kT*d[5mC]*dT*dT*dT*dA*dG*dA*dG*d[5mC]*d[5mC]*kA*kA*k[5mC]; antisense) [compound 1074419]; 3
1074851 (kA*kT*kT*dG*dT*dT*dA*dT*dG*dA*dT*dA*dG*kG*k[5mC]*kA; antisense) [compound 1074851]; 7
1076552 (kA*kT*kG*dT*dA*dT*dA*dA*dA*dT*dA*d[5mC]*d[5mC]*kA*kG*kG; antisense) [compound 1076552]; 12

Q: Form field: reported Yap1 mRNA, % UTC of 1075744 (kT*kT*k[5mC]*dG*dG*dG*dT*dT*dA*dG*d[5mC]*dA*dG*kA*k[5mC]*kT; antisense) [compound 1075744]
Result: 7

Q: Report Yap1 mRNA, % UTC for 1076369 (antisense kT*kA*kT*dT*d[5mC]*dG*dG*dT*dA*dT*dT*dT*dT*k[5mC]*kT*kA) [compound 1076369] please.
Result: 3

Q: Query: Yap1 mRNA, % UTC; subject: 1075699 (kG*kA*kT*dT*dT*dA*dT*dA*d[5mC]*dT*d[5mC]*dA*dG*kG*kT*kT; antisense) [compound 1075699]
Result: 2

###

system: Yap1 mRNA; experiment: Antisense inhibition of human Yap1 in A-431 cells by cEt gapmers, single dose (Example 3, RTS36584); format: cell-based; conditions: Table 10; A-431 cells, 5,000 cells per well, free uptake, 2,000 nM oligonucleotide, approx. 48 hours; primer probe set RTS36584; Yap1 mRNA normalized to RIBOGREEN, percent of untreated control
Strand notation (5' to 3'): a small letter for the sugar, then the base; units joined by * are phosphorothioate-linked, units joined directly phosphodiester-linked; [ ] holds rarer units or linkages, { } end groups; capitals alone tell only the bases. k = constrained ethyl (cEt); [5mC] = 5-methylcytosine; d = 2'-deoxy (DNA)
# maps each entry to its YAP1 (% UTC)
The answer is to be given in % UTC; state only the numeric part.

Worked examples follow.
958722 (antisense k[5mC]*kA*kT*dA*dA*dT*dA*dG*dG*dA*d[5mC]*dA*d[5mC]*kA*kA*k[5mC]) [Compound 958722]; 59
958782 (antisense kA*kT*kG*dG*dT*d[5mC]*dT*d[5mC]*d[5mC]*d[5mC]*dA*dG*dT*k[5mC]*kA*k[5mC]) [Compound 958782]; 20

Next substance, YAP1 (% UTC) to be filled in.
Q: Give the measured YAP1 (% UTC) of 958772 (antisense k[5mC]*kA*kA*d[5mC]*dA*dA*dA*d[5mC]*dA*dT*dA*dG*dT*kT*kA*k[5mC]) [Compound 958772] .
Result: 61

###

tested on: Yap1 mRNA; assay: Antisense inhibition of human Yap1 in A-431 cells by cEt gapmers, single dose (Example 4, RTS4814); format: cell-based; details: Table 14; A-431 cells, 5,000 cells per well, free uptake, 2,000 nM, approximately 48 hours; RTS4814; normalized to RIBOGREEN; Yap1 mRNA relative to untreated control; * = targets amplicon region of primer probe set
Strand notation (5' to 3'): a small letter for the sugar, then the base; units joined by * are phosphorothioate-linked, units joined directly phosphodiester-linked; [ ] holds rarer units or linkages, { } end groups; capitals alone tell only the bases. k = constrained ethyl (cEt); [5mC] = 5-methylcytosine; d = 2'-deoxy (DNA)
Classification by YAP1 (% UTC) follows these ranges: one: < 20 % UTC; two: ≥ 20 % UTC and < 70 % UTC; three: ≥ 70 % UTC

1075776 (kA*kT*kG*dT*dG*dA*dT*dA*dT*dG*dG*dA*dT*kT*k[5mC]*kT; antisense) [Compound 1075776]; one
1075232 (antisense kA*kT*kT*dT*dA*dT*d[5mC]*dA*dG*d[5mC]*d[5mC]*dA*dT*kT*kG*kT) [Compound 1075232]; one
1075616 (kG*kT*kA*dA*dA*dA*d[5mC]*d[5mC]*dG*dA*dT*dT*dT*kT*kT*k[5mC]; antisense) [Compound 1075616]; two
1074208 (antisense kG*kT*kG*d[5mC]*dA*d[5mC]*dG*dA*dT*d[5mC]*dT*dG*dA*kT*kG*k[5mC]) [Compound 1074208]; three

Q: Bin this entry: 1074624 (antisense kG*kG*k[5mC]*dT*dT*dA*dT*dT*d[5mC]*dT*dA*dG*dA*kA*kA*k[5mC]) [Compound 1074624]
Result: two

###

tested on: Yap1 mRNA; assay: Antisense inhibition of human Yap1 in A-431 cells by cEt gapmers, single dose (Example 4, RTS4814); type: cell-based; conditions: Table 14; A-431 cells, 5,000 cells per well, free uptake, 2,000 nM, approximately 48 hours; RTS4814; normalized to RIBOGREEN; Yap1 mRNA relative to untreated control; * = targets amplicon region of primer probe set
Strand notation (5' to 3'): a small letter for the sugar, then the base; units joined by * are phosphorothioate-linked, units joined directly phosphodiester-linked; [ ] holds rarer units or linkages, { } end groups; capitals alone tell only the bases. k = constrained ethyl (cEt); [5mC] = 5-methylcytosine; d = 2'-deoxy (DNA)
Documented YAP1 (% UTC) across a set of substances
Kindly provide the numeric value in % UTC only, without the unit symbol.

1075488 (antisense k[5mC]*kA*kG*dA*dA*dT*dA*dA*dG*dG*dG*dA*dG*kA*kT*k[5mC]) [Compound 1075488]; 56
1074784 (k[5mC]*k[5mC]*kA*dT*dA*dA*dG*dT*dA*dG*dA*dT*d[5mC]*kT*kA*kA; antisense) [Compound 1074784]; 25

Q: Give its YAP1 (% UTC) value. Item: 1074112 (kT*k[5mC]*k[5mC]*dA*dA*d[5mC]*dT*d[5mC]*d[5mC]*d[5mC]*dT*dT*dG*kA*k[5mC]*kG; antisense) [Compound 1074112]
Result: 83

###

Form field: Spleen weight (one value per entry).
Assay: Tolerability in Balb/c mice, body and organ weights (Example 10)
Format: in vivo
Details: 50 mg/kg subcutaneously twice a week for four weeks, end of study
Protocol: Groups of male Balb/c mice at 4-6 weeks of age (obtained from Taconic) were injected subcutaneously twice a week for four weeks (for a total of 8 treatments) with 50 mg/kg of modified oligonucleotides. One group of male Balb/c mice was injected with PBS. Mice were euthanized on day 26 post start of treatment (24 hours following the final administration). Body weights of Balb/c mice were measured at the end of the study, and the average body weight for each group is presented in the table below. […]
Strand notation (5' to 3'): a small letter for the sugar, then the base; units joined by * are phosphorothioate-linked, units joined directly phosphodiester-linked; [ ] holds rarer units or linkages, { } end groups; capitals alone tell only the bases. k = constrained ethyl (cEt); [5mC] = 5-methylcytosine; d = 2'-deoxy (DNA)
All answers are understood in g, so give the number only.

Q: Quick check: Spleen weight of 715609 (kT*kG*kT*dG*dT*dA*dG*dG*d[5mC]*dT*dG*dA*d[5mC]*kT*kT*kA; antisense) [compound 715609] ?
Result: 0.10

Q: Reported Spleen weight for 715558 (k[5mC]*kA*kG*dG*dA*dA*dG*dT*dT*dA*dT*dT*d[5mC]*kA*kG*k[5mC]; antisense) [compound 715558] : what is it?
Result: 0.12

Q: Fill in: Spleen weight of 715593 (kA*kT*kT*dT*d[5mC]*dT*dT*dT*dG*dG*d[5mC]*dA*dG*kA*kG*kA; antisense) [compound 715593] is ___
Result: 0.13

Q: For 715557 (kG*kG*kA*dA*dG*dT*dT*dA*dT*dT*d[5mC]*dA*dG*k[5mC]*kA*kG; antisense) [compound 715557] , what is its reported Spleen weight?
Result: 0.12
